target.or.system: 5-hydroxytryptamine receptor 2B (Homo sapiens, UniProt P41595)
Sequence (P41595 whole entry): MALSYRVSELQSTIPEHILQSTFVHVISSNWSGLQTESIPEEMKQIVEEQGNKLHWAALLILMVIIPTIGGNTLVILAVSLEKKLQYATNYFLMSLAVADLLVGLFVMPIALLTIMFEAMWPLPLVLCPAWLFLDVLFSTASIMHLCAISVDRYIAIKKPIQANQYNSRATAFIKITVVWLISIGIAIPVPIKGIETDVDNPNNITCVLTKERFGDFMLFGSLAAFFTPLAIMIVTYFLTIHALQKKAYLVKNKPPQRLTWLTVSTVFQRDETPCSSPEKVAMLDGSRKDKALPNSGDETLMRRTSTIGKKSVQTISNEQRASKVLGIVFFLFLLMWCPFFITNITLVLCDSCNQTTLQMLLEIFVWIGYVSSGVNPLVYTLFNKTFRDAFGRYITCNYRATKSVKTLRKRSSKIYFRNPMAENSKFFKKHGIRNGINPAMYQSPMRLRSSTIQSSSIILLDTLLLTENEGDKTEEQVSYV
method.description: Agonist activity at human recombinant 5-HT2B receptor expressed in CHO-K1 cells assessed as increase in intracellular calcium level by FLIPR assay
Format: functional, cell-based
Activity calls are given as the source filed them. No cut-off for these calls is given here.
readout.label: Activity

O=C1Cc2c(ccc3c2OC[C@H](CNCCCC2CCc4c([nH]c5ccc(F)cc45)C2)O3)N1 (stereo in doubt; 22): inactive
O=C1Cc2c(ccc3c2OC[C@H](CNCC2CCc4[nH]c5ccc(F)cc5c4C2)O3)N1 (single isomer, unassigned): inactive
O=c1[nH]c2cccc(N3C[C@H]4C[C@@H]3CN4CC3CCc4[nH]c5ccc(F)cc5c4C3)c2o1 (stereo partly drawn): inactive

----------
target.or.system: D(2) dopamine receptor (Homo sapiens)
Sequence (P14416 whole entry): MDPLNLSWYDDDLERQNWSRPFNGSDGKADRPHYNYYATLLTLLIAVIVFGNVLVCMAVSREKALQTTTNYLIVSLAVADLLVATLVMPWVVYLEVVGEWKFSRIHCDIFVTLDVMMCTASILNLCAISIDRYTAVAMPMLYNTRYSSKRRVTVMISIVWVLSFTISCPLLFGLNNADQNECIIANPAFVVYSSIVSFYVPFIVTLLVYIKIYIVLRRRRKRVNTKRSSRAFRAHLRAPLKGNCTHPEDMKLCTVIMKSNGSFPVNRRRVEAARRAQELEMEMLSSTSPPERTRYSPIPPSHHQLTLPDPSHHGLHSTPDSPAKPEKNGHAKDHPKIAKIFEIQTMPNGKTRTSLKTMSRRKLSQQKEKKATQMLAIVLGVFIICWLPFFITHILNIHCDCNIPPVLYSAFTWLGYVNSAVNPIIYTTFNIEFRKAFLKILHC
method.description: Displacement of [3H]spiperone from D2 receptor
Kindly state pKi for each of the entries shown.
One number for each entry, as −log10 of the molar value.

Please supply pKi for each of the following items, keeping them in order.
1. O=c1[nH]c2cccc(OC3CCN(CCC4CCc5[nH]c6ccc(F)cc6c5C4)CC3)c2o1 (centres undefined)
2. O=C1Cc2c(ccc3c2OC[C@H](CNCCCC2CCc4c([nH]c5ccc(F)cc45)C2)O3)N1 (stereo in doubt; 22)

6.51
7.30

Please supply pKi for each of the following items, keeping them in order.
1. O=c1[nH]c2cccc(N3C[C@H]4C[C@@H]3CN4CC3CCc4[nH]c5ccc(F)cc5c4C3)c2o1 (some centres undefined)
2. O=C1Cc2c(ccc3c2OC[C@H](CNCC2CCc4c([nH]c5ccc(F)cc45)C2)O3)N1 (some centres undefined)

7.85
7.00

// data source = ChEMBL document CHEMBL1156031
